target: L858R/T790M/C797S EGFR (Homo sapiens, UniProt P00533, C797S/L858R/T790M); construct: expressed in transfected cells; host or cells: H1975 clone #25 (lentiviral over-expression, endogenous EGFR knocked out by sgRNA); experiment: EGFR degradation HTRF assay in H1975-clone #25 (LTC) cells; format: cell-based; settings: H1975 # 25-LTC (L858R/T790M/C797S), 16h treatment, HTRF
Sequence (P00533 25-1210 T790M/C797S/L858R): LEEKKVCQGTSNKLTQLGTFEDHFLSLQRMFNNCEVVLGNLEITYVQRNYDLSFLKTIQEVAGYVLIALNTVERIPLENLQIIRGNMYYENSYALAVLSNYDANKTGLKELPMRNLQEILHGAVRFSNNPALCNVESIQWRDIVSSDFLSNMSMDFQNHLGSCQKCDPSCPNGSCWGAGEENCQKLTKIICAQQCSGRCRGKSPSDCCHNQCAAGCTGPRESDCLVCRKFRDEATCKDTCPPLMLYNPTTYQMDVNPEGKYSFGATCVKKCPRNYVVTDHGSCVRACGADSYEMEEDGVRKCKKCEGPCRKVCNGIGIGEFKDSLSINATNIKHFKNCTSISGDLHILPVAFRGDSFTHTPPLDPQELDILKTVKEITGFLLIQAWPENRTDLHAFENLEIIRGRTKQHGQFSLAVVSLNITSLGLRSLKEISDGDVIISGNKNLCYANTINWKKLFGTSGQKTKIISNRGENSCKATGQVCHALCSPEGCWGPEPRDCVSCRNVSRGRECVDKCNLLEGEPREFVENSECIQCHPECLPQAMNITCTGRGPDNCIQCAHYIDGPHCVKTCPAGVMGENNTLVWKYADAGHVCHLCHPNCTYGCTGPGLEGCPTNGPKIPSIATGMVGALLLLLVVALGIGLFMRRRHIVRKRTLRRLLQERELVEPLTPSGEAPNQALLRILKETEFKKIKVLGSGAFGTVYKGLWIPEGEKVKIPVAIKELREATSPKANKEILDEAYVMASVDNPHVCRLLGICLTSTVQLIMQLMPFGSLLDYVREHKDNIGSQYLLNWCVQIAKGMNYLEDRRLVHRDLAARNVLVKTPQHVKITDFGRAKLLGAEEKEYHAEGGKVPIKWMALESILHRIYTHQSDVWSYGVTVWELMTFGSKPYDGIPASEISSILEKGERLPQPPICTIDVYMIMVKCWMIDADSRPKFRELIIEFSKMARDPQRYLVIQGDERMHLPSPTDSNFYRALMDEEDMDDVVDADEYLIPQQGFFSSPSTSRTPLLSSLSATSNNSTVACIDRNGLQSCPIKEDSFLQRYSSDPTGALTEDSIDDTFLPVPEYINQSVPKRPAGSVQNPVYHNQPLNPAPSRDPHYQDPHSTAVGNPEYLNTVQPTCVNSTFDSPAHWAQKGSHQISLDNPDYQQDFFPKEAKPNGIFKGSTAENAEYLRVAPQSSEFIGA
observable: DC50 (nM)

compound	units-label	DC50
Cc1cc2cc(n1)-c1cnn(C)c1OCCC[C@@H](C)CN1/C(=N/C2=O)Nc2ccc(N3CCN(CC4CN(c5cc(F)c([C@H]6CCC(=O)NC6=O)c(F)c5)C4)CC3)cc21	nM	1.17
Cc1cc2cc(n1)-c1cnn(C)c1OCCC[C@@H](C)CN1/C(=N/C2=O)Nc2ccc(N3CCN(CCC4CCN(c5cc(F)c([C@H]6CCC(=O)NC6=O)c(F)c5)CC4)CC3=O)cc21	nM	1.01
Cc1cc2cc(n1)-c1cnn(C)c1OCC[C@H]1C[C@@H]1CN1/C(=N/C2=O)Nc2ccc(N3CCN([C@H]4C[C@H](Nc5cc(F)c([C@H]6CCC(=O)NC6=O)c(F)c5)C4)CC3)cc21 (single isomer, unassigned)	nM	1.25
